Please go through the items and note down their pre-steady-state target cleavage rate.
Test system: MILI (PIWIL2) piRISC loaded with L1MC piRNA (26 nt);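 also: 1 nM active piRISC with 0.1 nM target library at 33 °C single turnover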
Assay: pre-steady-state target cleavage rate (min^-1); guide: L1MC piRNA 5'p-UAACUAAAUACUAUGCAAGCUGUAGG; higher = faster piRNA-guided slicing of the target
Details: auxiliary factor: 500 nM mouse GTSF1
Enter the number alone.

Look up pre-steady-state target cleavage rate for this sequence: "UCCUGGAUGAGCUUGUAUAGUAUUUAGUUA"
0.181

What value of measured pre-steady-state target cleavage rate is listed for "UCCUGGAUCAGCUACCAUAGUAUUUAGAAA" ?
0.024

So what's the measured pre-steady-state target cleavage rate for this one? "UCCUCCUACAGGUUGCUUAGUAUUUAGUUA"
0.237

If you can, please state the reported pre-steady-state target cleavage rate value of "UCCUGGAUGUCGUUGCUUAGUAUUUAGUAA" .
0.0495

Which pre-steady-state target cleavage rate is listed for "UCCUGGAACAGCUUGCACAGUAUUUAGUUA" ?
0.169

Endpoint output: pre-steady-state target cleavage rate of "UCCUGGAACAGCUUGCAUAGAUUUUAGUAA" . Value?
0.0259

Look up pre-steady-state target cleavage rate for this sequence: "UCCUGGAACAGCAUCCAUAGUAUUUAGUUA"
0.195

Sample "UCCUCCUACACCUAGCAUAGUAUUUAGUUA" — what was its pre-steady-state target cleavage rate?
0.205

Fill in: pre-steady-state target cleavage rate of "UCCUGGAACAGCUUCGCAUAGUAUUUAGUUA" is ___
0.237

# lookup: pre-steady-state target cleavage rate of "UCCUGGAUGAGCUUUCAUAGUAUUUAGUUA"
0.15

Please report the recorded pre-steady-state target cleavage rate for "UCCUCGUACAGCUUGCAUAGUAUUUUCAAA" .
0.0759

Suppose we examine the sequence "UCCUGCUACAGCUAGCAUAGUAUUUAGAUA" ; what pre-steady-state target cleavage rate value has been reported?
0.151

Data request, read-out pre-steady-state target cleavage rate, for "UCCUGCUACAGCUUGCAUUGUAUUUACAAA"
0.0245

----------
Tested on: MILI (PIWIL2) piRISC loaded with L1MC piRNA (26 nt);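 also: 1 nM active piRISC with 0.1 nM target library at 33 °C single turnover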
Test: pre-steady-state target cleavage rate (min^-1); guide: L1MC piRNA 5'p-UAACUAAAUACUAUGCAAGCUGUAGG; higher = faster piRNA-guided slicing of the target
Conditions: auxiliary factor: none (no GTSF1)
Returns one of t or f; t when pre-steady-state target cleavage rate is >= 0.004.

Item "UCCUGGUACAGCUUGCUAAGUAUUUAGUUA" with pre-steady-state target cleavage rate of 0.004 or above?
t

Does pre-steady-state target cleavage rate meet or surpass 0.004 for "UCCUCCUACAGCUGGCAUAGUAUUUAGUUA" ?
t

Form field: pre-steady-state target cleavage rate at least 0.004? Entry: "UCCUGGAUCAGGAAGCAUAGUAUUUAGUUA"
f

Please check the record "UCCUGGAUGAGCUUGGAUAGUAAUUAGUUA" and state if its pre-steady-state target cleavage rate is at or above 0.004.
f

Please indicate if the recorded pre-steady-state target cleavage rate for "UCCUGGAUGUCGAAGCAUAGUAAUUUAGUUA" meets or exceeds 0.004.
t

Entry "UCCUGGAUGUGGUUGCAUACUAUUUAGUUA" : is its pre-steady-state target cleavage rate no less than 0.004?
t

----------
Test system: MILI (PIWIL2) piRISC loaded with L1MC piRNA (26 nt);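 also: 1 nM active piRISC with 0.1 nM target library at 33 °C single turnover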
Test: pre-steady-state target cleavage rate (min^-1); guide: L1MC piRNA 5'p-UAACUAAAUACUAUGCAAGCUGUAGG; higher = faster piRNA-guided slicing of the target
Conditions: auxiliary factor: 500 nM mouse GTSF1
Decision: pre-steady-state target cleavage rate >= 0.08 yields satisfied, all other cases yield not satisfied.

API: above_or_equal(metric=pre-steady-state target cleavage rate, cutoff=0.08) for item "UCCUCCUACAGCAUUGCAUAGUAUUUAGUUA"
satisfied

Check this sequence for pre-steady-state target cleavage rate at or above 0.08: "UCCUGGAUGUGCUUGCAUAGUCAUUUAGUUA"
not satisfied

Hi team, for "UCCUGGAUGUCCUACCAUAGUAUUUAGUAA" , is the recorded pre-steady-state target cleavage rate at or above 0.08?
not satisfied

Form field: pre-steady-state target cleavage rate at least 0.08? Entry: "UCCUCCUUGUGCUUGCAUAGUAUUUUCAAA"
not satisfied

Quick check: does "UCCUGGAUGAGCUUGGAAAGUAUUUAGUUA" have pre-steady-state target cleavage rate greater than or equal to 0.08?
satisfied

Is pre-steady-state target cleavage rate at least 0.08? Consider "UCCUGGAUGUCCUUGCAUAGUACUUUAGUUA"
not satisfied

Would you say "UCCUGGAAGUCCUUGCAUAGUAUUUAGAAA" shows pre-steady-state target cleavage rate at minimum 0.08?
satisfied

----------
Test system: EfPiwi piRISC loaded with piRNA #1 (26 nt)
Assay: pre-steady-state target cleavage rate (min^-1); auxiliary factor: 500 nM Ephydatia muelleri Gtsf1; guide: piRNA #1 5'p-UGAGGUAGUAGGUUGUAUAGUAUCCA; higher = faster piRNA-guided slicing of the target
Lab note: compare pre-steady-state target cleavage rate against 0.007. Equal or greater, write TRUE. Smaller, write FALSE.

Confirm if pre-steady-state target cleavage rate reported for the sequence "GGAGACCUUACUAUACAACGUACUACCUGA" is 0.007 or above.
FALSE

Say whether "GGAGACCAUACUAUACAACCUACAUCCUCA" shows pre-steady-state target cleavage rate of 0.007 or more.
FALSE

Decide: pre-steady-state target cleavage rate of "GGAGAGGAUACUAUUCAACCUACUACCACA" >= 0.007?
FALSE

Does the sequence "GGAGACGAUACUAUACCACCUACUACCUCA" have recorded pre-steady-state target cleavage rate that is 0.007 or more?
TRUE

Could you verify whether the entry "GGAGAGGAUACUAUACAAACUACUACCUCA" shows pre-steady-state target cleavage rate of no less than 0.007?
FALSE

Kindly determine if pre-steady-state target cleavage rate recorded for "GGAGAGGAUACUAUACAACCUACAAGCUCA" is above or exactly 0.007.
FALSE

Has "GGAGACCAUUCUAUACUACCUACUACCUCA" a recorded pre-steady-state target cleavage rate greater than or equal to 0.007?
TRUE

----------
For each entry below, report its pre-steady-state target cleavage rate value.
System: EfPiwi piRISC loaded with L1MC piRNA (26 nt)
Experiment: pre-steady-state target cleavage rate (min^-1); auxiliary factor: 500 nM Ephydatia muelleri Gtsf1; guide: L1MC piRNA 5'p-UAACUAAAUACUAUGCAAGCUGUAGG; MIWI and MILI are mouse PIWI proteins and EfPiwi is from a freshwater sponge; tags in brackets are library labels; higher = faster piRNA-guided slicing of the target
Quick one: just the number, no unit, thanks!

What does the data say about its pre-steady-state target cleavage rate? Entry: "UCCUGGAUGUCCGUUGCAUAGUAUUUAGUUA"
0.00412

I have this sequence here, "UCCUCCUACAGCUUGCAUAGUUUUUAGAUA" , and I need its recorded pre-steady-state target cleavage rate.
0.00341

Quick check: pre-steady-state target cleavage rate of "UCCUGGAACAGCUUGCAUCGUAUUUAGUUA" ?
0.0172

Consider the sequence shown here: "UCCUCCUACAGCUAGCAUAGUAUUAAGUUA" What is its recorded pre-steady-state target cleavage rate?
0.00633

Can you share its pre-steady-state target cleavage rate? I mean this sequence: "UCCUCCUACAGCUUGCAUAGUAUAUACAAA"
0.00313

What value of measured pre-steady-state target cleavage rate is listed for "UCCUGGAUGUGCUUGCAUAGUAUUGUAGUUA" ?
0.00579

I have this sequence here, "UCCUCCUACAGCUUGCAUAGUAUUUGAGUUA" , and I need its recorded pre-steady-state target cleavage rate.
0.00541

Need pre-steady-state target cleavage rate, item "UCCUGCUACAGCUUGCAUGUAUUUAGUUA"
0.00438

Endpoint output: pre-steady-state target cleavage rate of "UCCUGGAACAGCUUGCAUAGUAUAUAGUUA" . Value?
0.00501

Fill blank: measured pre-steady-state target cleavage rate of the sequence "UCCUGGAUGAGCUUGCAUAGUAAUUAGAUA" is ____.
0.00341

Quick check: pre-steady-state target cleavage rate of "UCCUGGUACACCUUGCUUAGUAUUUAGUUA" ?
0.00384

Please give the measured pre-steady-state target cleavage rate for this sequence: "UCCUGGAUGUCCUUACAUAGUAUUUAGUUA"
0.00492

Dear colleague, I am looking for the recorded pre-steady-state target cleavage rate of the following sequence: "UCCUCCUACAGCUUGCAUAGUAAUUUCAAA"
0.00321

Fill blank: measured pre-steady-state target cleavage rate of the sequence "UCCUCCUACAGCUAGCAUAGUAUUUACAAA" is ____.
0.00397

Report pre-steady-state target cleavage rate for "UCCUGGAUGUGCUGUGCAUAGUAUUUAGUUA" please.
0.00568

Field request: pre-steady-state target cleavage rate | item: "UCCUGCUACAGCAUGCAUAGAAUUUAGUUA"
0.00243

Fill in: pre-steady-state target cleavage rate of "UCCUCCUACAGCUUGGAUAGUAAUUAGUUA" is ___
0.0274

pre-steady-state target cleavage rate lookup needed for "UCCUGCUUGUGCUUGCAUAGUAUUUAGUUA" , thanks.
0.00618

pre-steady-state target cleavage rate lookup needed for "UCCUGCUAGUGCUUGCAUAGUAUUUAGAAA" , thanks.
0.00258

Param item = "UCCUGGAUCAGGAUGCAUAGUAUUUAGUUA" ; retrieve measured pre-steady-state target cleavage rate.
0.0121

For the sequence shown here, "UCCUGCUACAGCUUGGAUAGUAUUUUGUUA" , give the reported pre-steady-state target cleavage rate.
0.00556

Bench note: what pre-steady-state target cleavage rate did "UCCUGGAUGAGCUUGCUUAGUAUUUAGUAA" show?
0.00265

What pre-steady-state target cleavage rate value was documented for this sequence, "UCCUGGUACUGCUUGCAUAGUAUUUAGAUA" ?
0.00378

Quick check: pre-steady-state target cleavage rate of "UCCUGGAUCAGCUUGCAUUGUAUUUAGAUA" ?
0.00276

# pre-steady-state target cleavage rate lookup, item "UCCUGGAUCAGCAUGCAUAGUAUUUAGUUA"
0.12

Report pre-steady-state target cleavage rate for "UCCUGGAACAGCUUAGCAUAGUAUUUAGUUA" please.
0.0218

Need pre-steady-state target cleavage rate of "UCCUGGAUGUGCUUGCAUACUAUUUAGUUA" , thanks.
0.0112

Quick one: pre-steady-state target cleavage rate for "UCCUGGUACAGCUUGCAAAGUAUUUAGAAA" ?
0.00656

Please report the recorded pre-steady-state target cleavage rate for "UCCUGGUACAGCUUGCAUAGUAUUAAGAUA" .
0.0058

I'd like to know its pre-steady-state target cleavage rate. The sequence in question is "UCCUGGAUCUGCUUGCAUUGUAUUUAGUUA"
0.00657

Reported pre-steady-state target cleavage rate for "UCCUGCAACAGCUUGCAUAGUAUUUAGUAA" : what is it?
0.00572

Need pre-steady-state target cleavage rate of "UCCUGGAACAGCUUGCAUAGUAUAAAGUUA" , thanks.
0.00389

Fill in: pre-steady-state target cleavage rate of "UCCUGGAACAGCUCUGCAUAGUAUUUAGUUA" is ___
0.0165

Query: pre-steady-state target cleavage rate; subject: "UCCUCCUACAGCUUCCAAAGUAUUUAGUUA"
0.00527

Quick one: pre-steady-state target cleavage rate for "UCCUGCUACAGCUUGCAUAGGAUUUAGUUA" ?
0.00356

GET /values?readout=pre-steady-state target cleavage rate&item= "UCCUCCUACAGCUUGCAUAGUAUUAUGAAA"
0.00358

Recorded pre-steady-state target cleavage rate for "UCCUGCUAGAGCUUGCAUAGUAUUUUCAAA" , please?
0.00315

Fill in: pre-steady-state target cleavage rate of "UCCUGGAUCAGCUUGCAUAGUAUUUAGUCUA" is ___
0.00289

pre-steady-state target cleavage rate for "UCCUGGAUCAGCUUGCAUAGUAUUUAGUAUA" ?
0.0115

Any idea what pre-steady-state target cleavage rate was measured for "UCCUGGAUGUCCUUGCAUAGUAUUUAAUUA" ?
0.00439

Need pre-steady-state target cleavage rate, item "UCCUGGAUGUGCUUCCAUAGUAUUUAGUUA"
0.00277

Bench note: what pre-steady-state target cleavage rate did "UCCUGGAACAGCUUGCAUAGUAUUCUAGUUA" show?
0.00277

If you can, please state the reported pre-steady-state target cleavage rate value of "UCCUGGAUGUGCUUGCAUAGUAUUUAAUUA" .
0.113

Find the recorded pre-steady-state target cleavage rate belonging to "UCCUGGAUGUGCUUGCAUAGUAAUUAGUUA" and report it.
0.00847

Field request: pre-steady-state target cleavage rate | item: "UCCUGGAUCAGCUUGCAUUGUAUUUAGUAA"
0.00441

Which pre-steady-state target cleavage rate value is on record for "UCCUCCUACAGGUUGCAUAGAAUUUAGUUA" ?
0.0062

Entry "UCCUGGAACAGGUUGCAUAGUAAUUAGUUA" has what pre-steady-state target cleavage rate?
0.0061

What value of pre-steady-state target cleavage rate has been reported for the following sequence? "UCCUGGUUCAGCUUGCAUAGUAUUUAGAUA"
0.00378

Report pre-steady-state target cleavage rate for "UCCUGGAUCACGAUGCAUAGUAUUUAGUAA" please.
0.00397

I'd like to know its pre-steady-state target cleavage rate. The sequence in question is "UCCUGGAACAGCUUGCAUAGUAUUUAGUUUA"
0.0245

// query pre-steady-state target cleavage rate value for entry "UCCUCCUACAGCUUGCAUAGUAUUUCGUUA"
0.00416

I am curious: what pre-steady-state target cleavage rate value has been reported for "UCCUGGAACAGCUUGCAUAGUAAAAAGUUA" ?
0.00324

Endpoint output: pre-steady-state target cleavage rate of "UCCUGGAACAGCUUGCAUAGUAUUAAGAAA" . Value?
0.00313
